These data points were gathered from ChEMBL document CHEMBL1201862.

- Test system: DMS-114
- procedure_summary: NCI tumour cell line growth inhibition, 48 h
Activity calls are given as the source filed them. No stated cut-off is given here; in the data, active = GI50 up to about 1.1 µM and inactive = higher.

{"molecule": "CC(C)COC(=O)N1N=NC2C3CC(=O)C(O3)C21 (stereo not drawn)", "GI50": "> 100 µM (inactive)"}
{"molecule": "Cc1cccc(NC(=O)C(=O)C(C(=O)c2ccccc2F)C2OC(=O)c3ccccc32)c1Cl (stereo not drawn)", "GI50": "17.5 µM (inactive)"}
{"molecule": "O=C(CC1(O)C(=O)Nc2c(Cl)cc(Cl)cc21)c1ccc(Br)cc1Br (stereo not drawn)", "GI50": "6.56 µM (inactive)"}

* * *

# GI50 values compiled below
- System: EKVX
- procedure_summary: NCI tumour cell line growth inhibition, 48 h
Calls of active or inactive are those of the source. No stated cut-off is given here; in the data, active = GI50 up to about 1.1 µM and inactive = higher.

{"molecule": "O=c1c2cc([N+](=O)[O-])ccc2nc2n1CCCCC2", "GI50": "66.4 µM (inactive)"}
{"molecule": "COc1cc(OC)c(OC)cc1/C=C/c1cc[n+](C)c2ccccc12", "GI50": "50.2 µM (inactive)"}
{"molecule": "CCOC(=O)/C1=C(\\C)N(c2ccc(C)cc2)C(=O)c2ccccc2C(=O)c2c(O)ccc(O)c21", "GI50": "24.8 µM (inactive)"}
{"molecule": "C/C(=C\\CNc1nc(Cl)nc2[nH]cnc12)CO", "GI50": "> 100 µM (inactive)"}
{"molecule": "CC(C)[C@H]1NC(=O)[C@H]2N=C(S[C@H]2C)[C@@H]2CCCN2C(=O)[C@H](Cc2ccccc2)NC(=O)[C@@H]2CSC(=N2)[C@@H](Cc2ccccc2)NC(=O)[C@@H]2CSC1=N2", "GI50": "27.5 µM (inactive)"}
{"molecule": "CCCCCCCCCCCCC(O)[C@H]1CC[C@H](C(O)CCCCCC(=O)CCCCC2CC(C(C)=O)C(=O)O2)O1 (stereo partly drawn)", "GI50": "5.69 µM (inactive)"}
{"molecule": "CC(=O)Oc1c2oc3cc(O)c(O)cc3c2c(OC(C)=O)c2oc3cc(O)c(O)cc3c12 [POLYOZELLIN]", "GI50": "20.6 µM (inactive)"}
{"molecule": "CN1Cc2ccccc2S(=O)(=O)n2cccc2C1=O", "GI50": "> 100 µM (inactive)"}

* * *

# GI50 annotations
- System: RPMI-8226
- procedure_summary: NCI tumour cell line growth inhibition, 48 h
Activity calls are given as the source filed them. Cut-off read from the data, not from the text of the source: active = GI50 up to about 1.1 µM and inactive = higher.

{"molecule": "COc1cc(OC2OC(CO)C(O)C(O)C2O)c2c(c1)O[C@@H]1[C@H](O)Oc3cc(OC)c(OC)cc3[C@]1(O)C2=O (some centres not stated)", "GI50": "> 25 µM (inactive)"}
{"molecule": "C/C=C/[C@H]1O[C@@](OC)([C@@H](C)[C@H](O)[C@H](C)[C@H]2OC(=O)/C(OC)=C/C(C)=C/[C@@H](C)[C@@H](O)[C@@H](C)[C@@H](O)[C@H](C)C/C(C)=C/C=C/[C@@H]2OC)CC(OC2CC(O)C(OC(N)=O)C(C)O2)[C@@H]1C (some centres not stated)", "GI50": "< 0.01 µM (active)"}
{"molecule": "N#CC1CCCC2SC(F)(F)C(F)(F)C12 (configuration not stated)", "GI50": "> 46.8 µM (inactive)"}
{"molecule": "BrC(Br)=C1C(=C(Br)Br)C(Br)C1Br (configuration not stated)", "GI50": "0.158 µM (active)"}
{"molecule": "CCOCN1COCN(C)C1=O", "GI50": "> 100 µM (inactive)"}
{"molecule": "COc1cc(OCc2ccccc2)c2c(CCC(=O)O)cc(=O)oc2c1.COc1cc(OCc2ccccc2)cc2oc(=O)cc(CCC(=O)O)c12", "GI50": "57.3 µM (inactive)"}
{"molecule": "CC(=O)OCc1nnn2c1C(OC(C)=O)CC2 (configuration not stated)", "GI50": "> 100 µM (inactive)"}
{"molecule": "O=S1(=O)OCCOS(=O)(=O)C1S(=O)(=O)c1ccc2ccccc2c1", "GI50": "> 100 µM (inactive)"}
{"molecule": "COc1cc(OC)c(OC)cc1/C=N/NC(=O)N/N=C/c1cc(OC)c(OC)cc1OC", "GI50": "> 100 µM (inactive)"}
{"molecule": "CC(C)(C)c1cc(Cc2ccc(S(C)(=O)=O)cc2)c(O)c(C(C)(C)C)c1", "GI50": "10.8 µM (inactive)"}
{"molecule": "O=C1Cc2ccccc2N1c1c(Cl)cccc1Cl", "GI50": "19.6 µM (inactive)"}
{"molecule": "COc1ccc2c(c1)c(=Cc1ccc(N(C)C)cc1)c1cc(-c3ccccc3)[n+](C)n12", "GI50": "0.182 µM (active)"}
{"molecule": "O=C(/C=C/c1ccc(O)c(O)c1)OCCOC(=O)/C=C/c1ccc(O)c(O)c1", "GI50": "36.2 µM (inactive)"}
{"molecule": "CC(C)CCCC(C)[C@H]1CC[C@H]2[C@@H]3CC[C@H]4C[C@@H](CCC=C(c5cc(Cl)c(O)c(C(=O)O)c5)c5cc(Cl)c(O)c(C(=O)O)c5)CC[C@]4(C)[C@H]3CC[C@]12C (some centres not stated)", "GI50": "> 50 µM (inactive)"}
{"molecule": "CCCN(CCCC(NC(C)=O)C(=O)NCc1ccccc1)C(=O)N(C)N=O (configuration not stated)", "GI50": "> 100 µM (inactive)"}
{"molecule": "CC(=O)OCC(OC(C)=O)C(OC(C)=O)C(/C=N\\Nc1nc2ccccc2c(=O)[nH]1)OC(C)=O (configuration not stated)", "GI50": "91.8 µM (inactive)"}
{"molecule": "C=C1C(=O)O[C@@H]2[C@H]1C[C@H](I)[C@@]1(C)CC[C@H](O1)[C@](C)(I)CCCC(C)[C@@H]2O (some centres not stated)", "GI50": "2.61 µM (inactive)"}
{"molecule": "O=C(COc1ccc(OCC(=O)NNC2=NC(c3cc(F)c(Cl)cc3Cl)CS2)c(Cl)c1)NNC1=NC(c2cc(F)c(Cl)cc2Cl)CS1 (configuration not stated)", "GI50": "20 µM (inactive)"}
{"molecule": "CC12C(=O)OC(=O)C1(C)C1C=CC2O1 (configuration not stated)", "GI50": "> 100 µM (inactive)"}
{"molecule": "CN(C)Cc1cc(/N=N/c2ccccc2Cl)cc(CN(C)C)c1O", "GI50": "> 100 µM (inactive)"}
{"molecule": "CCOC(=O)Nc1cc2c(c(N)n1)N=C(c1ccccc1)[C@H](C)N2 [MIVOBULIN ISETHIONATE]", "GI50": "0.000215 µM (active)"}
{"molecule": "C=CCN1CCC(OC(=O)C(O)(C#CC)C2CCCC2)CC1 (configuration not stated)", "GI50": "> 100 µM (inactive)"}
{"molecule": "CC[C@@H]1ON(C)[C@H]2CN(C)C(=O)[C@@H]12", "GI50": "> 100 µM (inactive)"}
{"molecule": "CC(=O)CC12NC(=O)N(C)N=C1N(C)C(=O)N(C)C2=O (configuration not stated)", "GI50": "58.1 µM (inactive)"}
{"molecule": "CC(=O)Oc1cc2c(cc1OC(C)=O)C1(C)CCC2(C)c2cc(OC(C)=O)c(OC(C)=O)cc21", "GI50": "3.52 µM (inactive)"}
{"molecule": "O=S(=O)(/N=c1\\[nH]c(-c2cc(O)c(O)c(O)c2)cs1)c1ccc(Cl)cc1Cl", "GI50": "19.4 µM (inactive)"}
{"molecule": "NNC(=O)N/N=C1\\C(=O)N(c2nccs2)C(=O)C(=O)C1c1nc2ccccc2s1 (configuration not stated)", "GI50": "> 100 µM (inactive)"}
